Where these numbers come from: patent US20250163104A1

Target: human PD-1 / PD-L1-Ig binding on Jurkat cell line over-expressing human PD-1 (Jurkat-PD-1) (Homo sapiens)
Construct: expressed in transfected cells; host or cells: Jurkat
Sequence (Q15116 25-288): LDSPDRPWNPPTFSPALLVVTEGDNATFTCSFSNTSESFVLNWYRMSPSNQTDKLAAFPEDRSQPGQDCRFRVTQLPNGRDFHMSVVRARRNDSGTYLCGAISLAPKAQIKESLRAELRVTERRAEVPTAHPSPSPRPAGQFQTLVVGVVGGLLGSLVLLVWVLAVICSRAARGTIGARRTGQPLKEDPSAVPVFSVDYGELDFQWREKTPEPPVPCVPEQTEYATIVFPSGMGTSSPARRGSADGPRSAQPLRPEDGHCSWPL
Assay: Jurkat-PD-1 Cell Binding High-Content Screening Assay (CBA)
Format: cell-based
Conditions: Jurkat-PD-1 cells, PE-labeled PD-L1-Ig 20 nM final; read-out: Jurkat HPD1_PDL1 IC50
Where a SMILES comes first, the peptide text is derived from it. Bridges are numbered along the chain shown (N, C = ends). [ ]: non-standard residue; d: D form. Bip = N[C@@H](Cc1ccc(-c2ccccc2)cc1)C(=O)O; Dab = NCC[C@H](N)C(=O)O; Dap = NC[C@H](N)C(=O)O
For each of the compounds below, state its IC50.
Your answer should be a plain number; it is taken to be in nM.

**Query** Find the recorded IC50 belonging to CCC(C)[C@@H]1NC(=O)[C@H](Cc2ccc(-c3ccccc3)cc2)NC(=O)[C@H](C(C)C)NC(=O)[C@H](Cc2ccc(F)c(C)c2)NC(=O)[C@H](CC(=O)O)NC(=O)[C@H](Cc2ccc(OCC(=O)O)cc2)NC(=O)[C@H](CN)NC(=O)CSC[C@@H](C(=O)N[C@@H](C)C(N)=O)NC(=O)[C@H]([C@@H](C)O)NC(=O)[C@H](C(C)C)NC(=O)[C@H](CC2CCCCC2)NC(=O)[C@H](CCN)NC(=O)[C@@H](CC(C)C)NC(=O)[C@H](CCCN)NC1=O (stereo partly drawn) and report it.
**Result** 32.9

**Query** Find the recorded IC50 belonging to CC(C)C[C@H]1NC(=O)[C@H](CCCN)NC(=O)[C@H](CCC(=O)O)NC(=O)[C@H](Cc2ccc(-c3ccccc3)cc2)NC(=O)[C@H](C(C)C)NC(=O)[C@H](Cc2cccc(Cl)c2)NC(=O)[C@H](CC(=O)O)NC(=O)[C@H](Cc2ccc(O)cc2)NC(=O)[C@H](Cc2ccncc2)NC(=O)CSC[C@@H](C(=O)N[C@@H](C)C(N)=O)NC(=O)[C@H]([C@@H](C)O)NC(=O)[C@H](C(C)C)NC(=O)[C@H](CC2CCCCC2)NC(=O)[C@H](CCN)NC1=O and report it.
**Result** 13.6

**Query** Find the recorded IC50 belonging to CC(C)C[C@@H]1NC(=O)[C@H](Cc2c[nH]c3ccccc23)NC(=O)[C@H](CC(=O)O)NC(=O)[C@H](Cc2ccc(O)cc2)NC(=O)[C@H](Cc2ccccc2)NC(=O)CSC[C@@H](C(=O)NCC(N)=O)NC(=O)[C@H](CO)NC(=O)[C@H](C(C)C)NC(=O)[C@H](CC(C)C)NC(=O)[C@H](CC(N)=O)NC(=O)[C@@H](C)NC(=O)[C@H](CN)NC(=O)[C@H](C(C)C)NC(=O)[C@H](Cc2ccc(-c3ccccc3)cc2)NC1=O [Compound 1077] ({CH2CO}-FYDWL[Bip]V[Dap][dA]NLVSCG-NH2; thioether N-14) and report it.
**Result** 46.7

**Query** Find the recorded IC50 belonging to Cc1cccc(C[C@@H]2NC(=O)[C@H](CC(=O)O)NC(=O)[C@H](Cc3ccc(OCC(=O)O)cc3)NC(=O)[C@H](CN)NC(=O)CSC[C@@H](C(=O)N[C@@H](C)C(N)=O)NC(=O)[C@H]([C@@H](C)O)NC(=O)[C@H](C(C)C)NC(=O)[C@H](CC3CCCCC3)NC(=O)[C@H](CCN)NC(=O)[C@@H](CC(C)C)NC(=O)[C@H](CCCN)NC(=O)[C@H](C(C)C)NC(=O)[C@H](Cc3ccc(-c4ccccc4)cc3)NC(=O)[C@H](C(C)C)NC2=O)c1 and report it.
**Result** 6

**Query** Find the recorded IC50 belonging to CCC(C)[C@@H]1NC(=O)[C@H](Cc2ccc(-c3ccccc3)cc2)NC(=O)[C@H](C(C)C)NC(=O)[C@H](Cc2c[nH]c3ccccc23)NC(=O)[C@H](CC(=O)O)NC(=O)[C@H](Cc2ccc(OCC(=O)O)cc2)NC(=O)[C@H](Cc2ccncc2)NC(=O)CSC[C@@H](C(=O)N[C@@H](C)C(N)=O)NC(=O)[C@H](C(C)O)NC(=O)[C@H](C(C)C)NC(=O)[C@H](CC2CCCCC2)NC(=O)[C@H](CCN)NC(=O)[C@@H](CC(C)C)NC(=O)[C@H](CCCN)NC1=O (stereo partly drawn) and report it.
**Result** 6.5

**Query** Find the recorded IC50 belonging to CC(C)C[C@@H]1NC(=O)[C@H](CCN)NC(=O)[C@@H](CC(C)C)NC(=O)[C@H](CN)NC(=O)[C@H](CCCNC(=N)N)NC(=O)[C@H](Cc2ccc(-c3ccccc3)cc2)NC(=O)[C@H](C(C)C)NC(=O)[C@H](Cc2c[nH]c3ccccc23)NC(=O)[C@H](CC(=O)O)NC(=O)[C@H](Cc2ccc(O)cc2)NC(=O)[C@H](CC(N)=O)NC(=O)CSC[C@@H](C(=O)N[C@@H](C)C(N)=O)NC(=O)[C@H]([C@@H](C)O)NC(=O)[C@H](C(C)C)NC1=O [Compound 1009] ({CH2CO}-NYDWV[Bip]R[Dap][dL][Dab]LVTCA-NH2; thioether N-14) and report it.
**Result** 52.9
